Molecular target: ACSS2 (Homo sapiens (Human), UniProt Q9NR19)
Sequence (Q9NR19 whole entry): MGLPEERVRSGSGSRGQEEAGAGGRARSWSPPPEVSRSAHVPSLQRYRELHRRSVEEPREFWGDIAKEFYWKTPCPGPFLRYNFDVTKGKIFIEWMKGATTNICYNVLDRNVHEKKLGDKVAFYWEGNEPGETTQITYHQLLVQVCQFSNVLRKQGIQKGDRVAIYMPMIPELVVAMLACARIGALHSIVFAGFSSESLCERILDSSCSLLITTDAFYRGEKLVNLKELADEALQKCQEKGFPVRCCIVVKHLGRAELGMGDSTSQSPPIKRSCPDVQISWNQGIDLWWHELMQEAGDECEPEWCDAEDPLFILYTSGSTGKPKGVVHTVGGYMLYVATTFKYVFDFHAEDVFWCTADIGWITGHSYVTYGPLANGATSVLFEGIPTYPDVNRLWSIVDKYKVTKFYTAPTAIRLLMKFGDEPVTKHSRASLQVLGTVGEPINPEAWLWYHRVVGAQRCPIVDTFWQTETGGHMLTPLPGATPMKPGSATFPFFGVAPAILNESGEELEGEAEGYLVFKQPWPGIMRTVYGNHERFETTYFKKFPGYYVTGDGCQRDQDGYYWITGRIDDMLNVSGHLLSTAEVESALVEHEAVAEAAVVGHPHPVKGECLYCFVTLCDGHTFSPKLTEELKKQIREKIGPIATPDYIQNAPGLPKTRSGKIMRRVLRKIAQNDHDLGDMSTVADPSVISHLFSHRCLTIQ
Experiment: Cellular assay of 14C acetate incorporation into histones (IC50 ACSS2 cellular histone)
Assay type: cell-based
Details: HCT-15 cells
observed.property: IC50

CCn1c(C(O)(c2ccccc2)c2ccccc2C)nc2nc(OC)c(-c3nnn[nH]3)cc21 (racemic) [Compound 42]	1 to 10 nM

## Task Which IC50 value belongs to CCn1c(C(O)(c2ccccc2)c2ccncn2)nc2nc(OC)c(-c3nnn[nH]3)cc21 (racemic) [Compound 25] ?
## Result 1 to 10 nM

## Task Which IC50 value belongs to CCn1c(C(O)(c2ccccc2)c2cccs2)nc2nc(OC)c(-c3nnn[nH]3)cc21 (racemic) [Compound 35] ?
## Result 1 to 10 nM

## Task Which IC50 value belongs to CCn1c(C(O)(c2ccsc2)c2ccsc2)nc2nc(OC)c(-c3nnn[nH]3)cc21 [Compound 29] ?
## Result 10 to 100 nM

## Task Which IC50 value belongs to CCn1c(C(O)(c2ccccc2)c2ccc(OC(F)F)cc2)nc2nc(OC)c(-c3nnn[nH]3)cc21 (racemic) [Compound 53] ?
## Result 10 to 100 nM

## Task Which IC50 value belongs to CCc1c(C(O)(c2ccccc2)c2ccccc2)nc2ccc(-c3nnn[nH]3)cn12 [Compound 4] ?
## Result 100 to 10000 nM

## Task Which IC50 value belongs to CCn1c(C(O)(c2ccccc2F)c2ccc(OC(F)F)cc2F)nc2nc(OC)c(-c3nnn[nH]3)cc21 (racemic) [Compound 54] ?
## Result 1 to 10 nM

----------
Tested on: CYP3A4
Assay: CYP-induction assay in HepaRG cells, QuantiGene Plex 2.0 (CYP3A4 induction)
Format: in vitro ADME, human
Conditions: 48 hrs, value in parentheses
CYP3A4 (in parentheses: lowest concentration causing at least 2-fold induction): recorded values
Numeric answer only, unit µM assumed.

Use the examples below as a reference point.
CCc1c(C(O)(c2ccccc2)c2ccccc2)nc2cc(OC)c(-c3nnn[nH]3)cn12	5
CCc1c(C(O)(c2ccccc2)c2ccccc2)nn2cc(Cl)c(-c3nnn[nH]3)cc12	50
CCc1c(C(O)(c2ccccc2)c2ccccc2)nc2ccc(-c3nnn[nH]3)cn12	50
CCn1c(C(O)(c2ccccc2)c2ccccc2)nc2nc(OC)c(-c3nnn[nH]3)cc21	50
CCn1c(C(O)(c2ccccc2)c2ccccc2)nc2nc(Cl)c(-c3nnn[nH]3)cc21	50
CCn1c(C(O)(c2ccccc2)c2ccccn2)nc2nc(OC)c(-c3nnn[nH]3)cc21 (single isomer, unassigned)	5
CCn1c(C(O)(c2ccccc2F)c2ccccc2F)nc2nc(C)c(-c3nnn[nH]3)cc21	5

For the next question, use this molecule.
## Task Which CYP3A4 (in parentheses: lowest concentration causing at least 2-fold induction) value belongs to CCn1c(C(O)(c2ccccc2)c2ccccc2)nc2ccc(C(=O)NC[C@@H](C)O)cc21 [Reference Compound, reference compound] ?
## Result 0.15

----------
Target: ACSS2 (Homo sapiens (Human), UniProt Q9NR19)
Assay: Cellular assay of 14C acetate incorporation into histones (IC50 ACSS2 cellular histone)
Format: cell-based
Settings: HCT-15 cells
IC50: recorded values

## Task Enter reported IC50 observed with ACSS2 (Homo sapiens (Human), UniProt Q9NR19) for CCn1c(C(O)(c2ccccc2)c2ccccn2)nc2nc(OC)c(-c3nnn[nH]3)cc21 (single isomer, unassigned) [Compound 41]
## Result 1 to 10 nM

## Task Enter reported IC50 observed with ACSS2 (Homo sapiens (Human), UniProt Q9NR19) for CCn1c(C(O)(c2ccccc2)c2ccccc2)nc2nc(Cl)c(-c3nnn[nH]3)cc21
## Result 10 to 100 nM

## Task Enter reported IC50 observed with ACSS2 (Homo sapiens (Human), UniProt Q9NR19) for CCc1c(C(O)(c2ccccc2)c2ccccn2)nc2cc(OC)c(-c3nnn[nH]3)cn12 (single isomer, unassigned) [Compound 10]
## Result 100 to 10000 nM

## Task Enter reported IC50 observed with ACSS2 (Homo sapiens (Human), UniProt Q9NR19) for CCn1c(C(O)(c2ccccc2)c2cnn(C)c2)nc2nc(OC)c(-c3nnn[nH]3)cc21 (racemic)
## Result 100 to 10000 nM
